These data points were gathered from ChEMBL document CHEMBL1255409.

Recorded MIC90 values for a group of compounds are listed next.
- Tested on: Prevotella corporis
- assay overview: Antimicrobial activity against Prevotella corporis under anaerobic conditions after 44 hrs by CLSI-M11-47 protocol based agar dilution method
- Assay type: functional
measured endpoint: MIC90 (µg/mL)

# compound, measured endpoint, readout unit, observed value
records = [
    ("Cc1ncc([N+](=O)[O-])n1CCO [METRONIDAZOLE]", "MIC90", "µg/mL", 2),
    ("CCC[C@@H]1C[C@@H](C(=O)N[C@@H]([C@H]2O[C@H](SC)[C@H](O)[C@@H](O)[C@H]2O)[C@H](C)Cl)N(C)C1 [CLINDAMYCIN]", "MIC90", "µg/mL", 128),
    ("CO/N=C(\\C(=O)N[C@@H]1C(=O)N2C(C(=O)O)=C(CSc3nc(=O)c(O)nn3C)CS[C@H]12)c1csc(N)n1 [CEFTRIAXONE]", "MIC90", "µg/mL", 8),
    ("CCO/N=C(\\C(=O)N[C@@H]1C(=O)N2C(C(=O)[O-])=C(Sc3nc(-c4cc[n+](C)cc4)cs3)CS[C@H]12)c1nsc(NP(=O)(O)O)n1 [CEFTAROLINE FOSAMIL]", "MIC90", "µg/mL", 32),
]

====

- Test system: Clostridium aldenense
- assay overview: Antimicrobial activity against Clostridium aldenense under anaerobic conditions after 44 hrs by CLSI-M11-47 protocol based agar dilution method
- Type: functional
- test settings: Enterocloster aldenensis

# compound, MIC90 [mg/L]
data = [
    ("CCC[C@@H]1C[C@@H](C(=O)N[C@@H]([C@H]2O[C@H](SC)[C@H](O)[C@@H](O)[C@H]2O)[C@H](C)Cl)N(C)C1 [CLINDAMYCIN]", 2),
    ("CCO/N=C(\\C(=O)N[C@@H]1C(=O)N2C(C(=O)[O-])=C(Sc3nc(-c4cc[n+](C)cc4)cs3)CS[C@H]12)c1nsc(NP(=O)(O)O)n1 [CEFTAROLINE FOSAMIL]", 2),
    ("Cc1ncc([N+](=O)[O-])n1CCO [METRONIDAZOLE]", 0.25),
    ("CO/N=C(\\C(=O)N[C@@H]1C(=O)N2C(C(=O)O)=C(CSc3nc(=O)c(O)nn3C)CS[C@H]12)c1csc(N)n1 [CEFTRIAXONE]", 32),
]

====

- Test system: Clostridium cadaveris
- assay overview: Antimicrobial activity against Clostridium cadaveris under anaerobic conditions after 44 hrs by CLSI-M11-47 protocol based agar dilution method
- Type: functional
measured endpoint: MIC50

# item smiles, observed value
rows = [
    ("CO/N=C(\\C(=O)N[C@@H]1C(=O)N2C(C(=O)O)=C(CSc3nc(=O)c(O)nn3C)CS[C@H]12)c1csc(N)n1", "2 µg/mL"),
    ("Cc1ncc([N+](=O)[O-])n1CCO", "0.5 µg/mL"),
    ("CCC[C@@H]1C[C@@H](C(=O)N[C@@H]([C@H]2O[C@H](SC)[C@H](O)[C@@H](O)[C@H]2O)[C@H](C)Cl)N(C)C1", "2 µg/mL"),
    ("CCO/N=C(\\C(=O)N[C@@H]1C(=O)N2C(C(=O)[O-])=C(Sc3nc(-c4cc[n+](C)cc4)cs3)CS[C@H]12)c1nsc(NP(=O)(O)O)n1", "0.5 µg/mL"),
]

====

- Test system: Collinsella aerofaciens
- assay overview: Antimicrobial activity against Colinsella aerofaciens under anaerobic conditions after 44 hrs by CLSI-M11-47 protocol based agar dilution method
- Assay type: functional
Recorded MIC90 values for a group of molecules are listed next.

# item smiles, MIC90
data = [
    ("CCO/N=C(\\C(=O)N[C@@H]1C(=O)N2C(C(=O)[O-])=C(Sc3nc(-c4cc[n+](C)cc4)cs3)CS[C@H]12)c1nsc(NP(=O)(O)O)n1", "0.25 µg/mL"),
    ("Cc1ncc([N+](=O)[O-])n1CCO", "1 µg/mL"),
    ("CO/N=C(\\C(=O)N[C@@H]1C(=O)N2C(C(=O)O)=C(CSc3nc(=O)c(O)nn3C)CS[C@H]12)c1csc(N)n1", "2 µg/mL"),
    ("CCC[C@@H]1C[C@@H](C(=O)N[C@@H]([C@H]2O[C@H](SC)[C@H](O)[C@@H](O)[C@H]2O)[C@H](C)Cl)N(C)C1", "2 µg/mL"),
]

====

- Tested on: Prevotella nanceiensis
- assay overview: Antimicrobial activity against Prevotella nanceiensis under anaerobic conditions after 44 hrs by CLSI-M11-47 protocol based agar dilution method
- Format: functional
- test settings: Hoylesella nanceiensis

# molecule, assayed system, readout unit, MIC90
data = [
    ("CCC[C@@H]1C[C@@H](C(=O)N[C@@H]([C@H]2O[C@H](SC)[C@H](O)[C@@H](O)[C@H]2O)[C@H](C)Cl)N(C)C1 [CLINDAMYCIN]", "Prevotella nanceiensis", "mg/L", 128),
    ("CCO/N=C(\\C(=O)N[C@@H]1C(=O)N2C(C(=O)[O-])=C(Sc3nc(-c4cc[n+](C)cc4)cs3)CS[C@H]12)c1nsc(NP(=O)(O)O)n1 [CEFTAROLINE FOSAMIL]", "Prevotella nanceiensis", "mg/L", 32),
    ("CO/N=C(\\C(=O)N[C@@H]1C(=O)N2C(C(=O)O)=C(CSc3nc(=O)c(O)nn3C)CS[C@H]12)c1csc(N)n1 [CEFTRIAXONE]", "Prevotella nanceiensis", "mg/L", 8),
    ("Cc1ncc([N+](=O)[O-])n1CCO [METRONIDAZOLE]", "Prevotella nanceiensis", "mg/L", 2),
]

====

Recorded MIC50 values for a group of molecules are listed next.
- Tested on: Anaerococcus murdochii
- assay overview: Antimicrobial activity against Anaerococcus murdochii under anaerobic conditions after 44 hrs by CLSI-M11-47 protocol based agar dilution method
- Assay type: functional

# item smiles, readout unit, MIC50
data = [
    ("Cc1ncc([N+](=O)[O-])n1CCO", "µg/mL", 1),
    ("CO/N=C(\\C(=O)N[C@@H]1C(=O)N2C(C(=O)O)=C(CSc3nc(=O)c(O)nn3C)CS[C@H]12)c1csc(N)n1", "µg/mL", 0.25),
    ("CCC[C@@H]1C[C@@H](C(=O)N[C@@H]([C@H]2O[C@H](SC)[C@H](O)[C@@H](O)[C@H]2O)[C@H](C)Cl)N(C)C1", "µg/mL", 0.125),
    ("CCO/N=C(\\C(=O)N[C@@H]1C(=O)N2C(C(=O)[O-])=C(Sc3nc(-c4cc[n+](C)cc4)cs3)CS[C@H]12)c1nsc(NP(=O)(O)O)n1", "µg/mL", 0.06),
]

====

Recorded MIC90 values for a group of compounds are listed next.
- Tested on: Lacticaseibacillus casei
- assay overview: Antimicrobial activity against Lactobacillus casei under anaerobic conditions after 44 hrs by CLSI-M11-47 protocol based agar dilution method
- Type: functional
measured endpoint: MIC90

# item smiles, observed value
rows = [
    ("CCC[C@@H]1C[C@@H](C(=O)N[C@@H]([C@H]2O[C@H](SC)[C@H](O)[C@@H](O)[C@H]2O)[C@H](C)Cl)N(C)C1", "2 µg/mL"),
    ("CCO/N=C(\\C(=O)N[C@@H]1C(=O)N2C(C(=O)[O-])=C(Sc3nc(-c4cc[n+](C)cc4)cs3)CS[C@H]12)c1nsc(NP(=O)(O)O)n1", "1 µg/mL"),
    ("CO/N=C(\\C(=O)N[C@@H]1C(=O)N2C(C(=O)O)=C(CSc3nc(=O)c(O)nn3C)CS[C@H]12)c1csc(N)n1", "64 µg/mL"),
    ("Cc1ncc([N+](=O)[O-])n1CCO", "> 64 µg/mL"),
]

====

Recorded MIC50 values for a group of compounds are listed next.
- Tested on: Clostridium bolteae
- assay overview: Antimicrobial activity against Clostridium bolteae under anaerobic conditions after 44 hrs by CLSI-M11-47 protocol based agar dilution method
- Assay type: functional
- test settings: Enterocloster bolteae

# item smiles, MIC50
rows = [
    ("Cc1ncc([N+](=O)[O-])n1CCO", "0.06 µg/mL"),
    ("CCC[C@@H]1C[C@@H](C(=O)N[C@@H]([C@H]2O[C@H](SC)[C@H](O)[C@@H](O)[C@H]2O)[C@H](C)Cl)N(C)C1", "0.5 µg/mL"),
    ("CCO/N=C(\\C(=O)N[C@@H]1C(=O)N2C(C(=O)[O-])=C(Sc3nc(-c4cc[n+](C)cc4)cs3)CS[C@H]12)c1nsc(NP(=O)(O)O)n1", "1 µg/mL"),
    ("CO/N=C(\\C(=O)N[C@@H]1C(=O)N2C(C(=O)O)=C(CSc3nc(=O)c(O)nn3C)CS[C@H]12)c1csc(N)n1", "4 µg/mL"),
]

====

- System: Eggerthella lenta
- assay overview: Antimicrobial activity against Eggerthella lenta under anaerobic conditions after 44 hrs by CLSI-M11-47 protocol based agar dilution method
- Format: functional
Recorded MIC90 values for a group of compounds are listed next.
measured endpoint: MIC90 (mg/L)

# item smiles, relation sign, observed value
data = [
    ("CCO/N=C(\\C(=O)N[C@@H]1C(=O)N2C(C(=O)[O-])=C(Sc3nc(-c4cc[n+](C)cc4)cs3)CS[C@H]12)c1nsc(NP(=O)(O)O)n1", "=", 16),
    ("CCC[C@@H]1C[C@@H](C(=O)N[C@@H]([C@H]2O[C@H](SC)[C@H](O)[C@@H](O)[C@H]2O)[C@H](C)Cl)N(C)C1", "=", 2),
    ("Cc1ncc([N+](=O)[O-])n1CCO", "=", 1),
    ("CO/N=C(\\C(=O)N[C@@H]1C(=O)N2C(C(=O)O)=C(CSc3nc(=O)c(O)nn3C)CS[C@H]12)c1csc(N)n1", ">", 64),
]
